tested on: KB (nasopharyngeal carcinoma); assay: SRB cytotoxic activity assay, KB; assay type: cell-based, human; settings: 3 days in culture, average of three independent measurements
Entries and their measured GI50 KB follow.

| compound | assay.system | GI50 KB |
| --- | --- | --- |
| COc1cc(NC(=O)c2cccc(Nc3ncc(F)c(Nc4ccc(F)cc4)n3)c2)cc(OC)c1 [Compound 11k] | KB (nasopharyngeal carcinoma) | 15.47 ± 1.58 µM |

IN: Given the entry O=C(Nc1ccccn1)c1cccc(Nc2ncc(F)c(Nc3ccc(F)cc3)n2)c1 [Compound 11n] , report its measured GI50 KB.
OUT: 20.03 ± 10.96 µM

IN: Given the entry CS(=O)(=O)N1CCN(C(=O)c2cccc(Nc3ncc(F)c(Nc4ccc(F)cc4)n3)c2)CC1 [Compound 11d] , report its measured GI50 KB.
OUT: 20.29 ± 4.09 µM

IN: Given the entry O=C(Nc1cccc(Nc2ncc(F)c(Nc3ccc(F)cc3)n2)c1)c1ccccc1 [Compound 9a] , report its measured GI50 KB.
OUT: > 10 µM

IN: Given the entry Fc1cnc(Nc2cccc(N3CCOCC3)c2)nc1Nc1cc(Cl)cc(Cl)c1 [Compound 6a] , report its measured GI50 KB.
OUT: 14.80 ± 1.02 µM

IN: Given the entry COc1ccc(NC(=O)c2cccc(Nc3ncc(F)c(Nc4ccc(F)cc4)n3)c2)cc1 [Compound 11j] , report its measured GI50 KB.
OUT: > 10 µM

IN: Given the entry O=C(c1cccc(Nc2ncc(F)c(Nc3ccc(F)cc3)n2)c1)N1CCCCC1 [Compound 11c] , report its measured GI50 KB.
OUT: 14.78 ± 2.53 µM

IN: Given the entry COCC(=O)Nc1cccc(Nc2ncc(F)c(Nc3ccc(F)cc3)n2)c1 [Compound 9h] , report its measured GI50 KB.
OUT: 6.25 ± 1.38 µM

* * *

Entries and their measured GI50 KB follow.
system: KB (nasopharyngeal carcinoma); assay: SRB cytotoxic activity assay, KB; assay type: cell-based, human; conditions: 3 days in culture, average of three independent measurements
// return numeric value only (unit: µM, not printed)

| molecule | assay.system | parameter.measured | units | reading |
| --- | --- | --- | --- | --- |
| CN1CCN(C(=O)c2cccc(Nc3ncc(F)c(Nc4ccc(F)cc4)n3)c2)CC1 [Compound 11b] | KB (nasopharyngeal carcinoma) | GI50 KB | µM | 12.58 |

Switching to the query record.
IN: I'm curious: which GI50 KB was measured for O=C(Nc1ccc2c(c1)OCO2)c1cccc(Nc2ncc(F)c(Nc3ccc(F)cc3)n2)c1 [Compound 11l] tested on KB (nasopharyngeal carcinoma)?
OUT: 14.08

* * *

test system: KB (nasopharyngeal carcinoma); assay: SRB cytotoxic activity assay, KB; assay type: cell-based, human; settings: 3 days in culture, average of three independent measurements
Entries and their measured GI50 KB follow.
// return numeric value only (unit: µM, not printed)

| compound | reading |
| --- | --- |
| CN1CC[C@H](c2c(O)cc(O)c3c(=O)cc(-c4ccccc4Cl)oc23)[C@H](O)C1 [FVP, flavopiridol, reference compound] | 0.16 |

IN: I'm curious: which GI50 KB was measured for `O=C(Nc1cccc(Nc2ncc(F)c(Nc3ccc(F)cc3)n2)c1)c1ccncc1` tested on KB (nasopharyngeal carcinoma)?
OUT: 5.28

IN: I'm curious: which GI50 KB was measured for `O=C(Nc1cccc(Nc2ncc(F)c(Nc3ccc(F)cc3)n2)c1)c1cccc([N+](=O)[O-])c1` tested on KB (nasopharyngeal carcinoma)?
OUT: 15.10

IN: I'm curious: which GI50 KB was measured for O=C(NCCO)c1cccc(Nc2ncc(F)c(Nc3ccc(F)cc3)n2)c1 [Compound 11g] tested on KB (nasopharyngeal carcinoma)?
OUT: 12.39

IN: I'm curious: which GI50 KB was measured for `CN1CCC(C(=O)Nc2cccc(Nc3ncc(F)c(Nc4ccc(F)cc4)n3)c2)CC1` tested on KB (nasopharyngeal carcinoma)?
OUT: 1.70

IN: I'm curious: which GI50 KB was measured for O=C(Nc1cc(Cl)cc(Cl)c1)c1cccc(Nc2ncc(F)c(Nc3ccc(F)cc3)n2)c1 [Compound 11m] tested on KB (nasopharyngeal carcinoma)?
OUT: 20.08

IN: I'm curious: which GI50 KB was measured for `CN(C)CC(=O)Nc1cccc(Nc2ncc(F)c(Nc3ccc(F)cc3)n2)c1` tested on KB (nasopharyngeal carcinoma)?
OUT: 1.26

* * *

test system: KB (nasopharyngeal carcinoma); experiment: SRB cytotoxic activity assay, KB; type: cell-based, human; conditions: 3 days in culture, average of three independent measurements
Label class 1 when GI50 KB < 10 µM; otherwise class 0.

Would you please look over these solved cases?
| molecule | group |
| --- | --- |
| CN(C)CCNC(=O)c1cccc(Nc2ncc(F)c(Nc3ccc(F)cc3)n2)c1 [Compound 11f] | class 1 |
| O=C(Nc1nccs1)c1cccc(Nc2ncc(F)c(Nc3ccc(F)cc3)n2)c1 [Compound 11o] | class 0 |
| Cn1ccnc1NC(=O)c1cccc(Nc2ncc(F)c(Nc3ccc(F)cc3)n2)c1 [Compound 11p] | class 0 |
| O=C(Nc1cccc(Nc2ncc(F)c(Nc3ccc(F)cc3)n2)c1)c1cnccn1 [Compound 9e] | class 0 |

IN: Lab note: confirm whether the reported GI50 KB for this molecule is below 10 µM, equality not counting. molecule: CC(=O)N1CCCN(C(=O)c2cccc(Nc3ncc(F)c(Nc4ccc(F)cc4)n3)c2)CC1 [Compound 11e]
OUT: class 0

IN: Lab note: confirm whether the reported GI50 KB for this molecule is below 10 µM, equality not counting. molecule: O=C(c1cccc(Nc2ncc(F)c(Nc3ccc(F)cc3)n2)c1)N1CCOCC1 [Compound 11a]
OUT: class 0

IN: Lab note: confirm whether the reported GI50 KB for this molecule is below 10 µM, equality not counting. molecule: COc1ccc(N2CCN(C)CC2)cc1Nc1ncc(F)c(Nc2ccc(F)cc2)n1 [Compound 6f]
OUT: class 1

IN: Lab note: confirm whether the reported GI50 KB for this molecule is below 10 µM, equality not counting. molecule: O=C(Nc1ccc(N2CCOCC2)cc1)c1cccc(Nc2ncc(F)c(Nc3ccc(F)cc3)n2)c1 [Compound 11i]
OUT: class 0
